So I've got a bunch of binders here, and I need their Bmax (OD values) values.
Biological target: T1, human galectin-10-His (recombinant human galectin-10 with TEV-cleavable N-terminal His-tag) (human)
T1 construct: SEC-MALLS: dimer in solution; also called Gal10-His; humanGal10-His
T1 chain: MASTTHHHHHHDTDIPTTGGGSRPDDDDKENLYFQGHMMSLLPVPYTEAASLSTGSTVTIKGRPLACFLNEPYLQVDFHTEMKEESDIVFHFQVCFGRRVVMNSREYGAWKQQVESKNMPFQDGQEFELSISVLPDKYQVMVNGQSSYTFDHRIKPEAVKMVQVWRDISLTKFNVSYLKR
Assay: ELISA, scFv-hFc on coated galectin-10-His (0.2 ug/mL)
One number for each entry, in OD.

Below, each entry is followed by its recorded Bmax (OD values) result.
[
  {
    "binder": "6A11 scFv-human Fc (Fc fusion, about 100 kDa on SDS-PAGE; also called 6A11 ScFv-hFc; not shown: CH2-CH3 constant domains of human IgG1 (vector pUPEX50)) scFv: ELQLVESGGGLVQPGGSLRLSCSASGFTFGAYAMNWVRQAPGKGLEWVSGVNSGGGLTSYGESVKGRFTISRDNAKNTLYLQMNRLNPDDTAVYYCAKSKRGAVVAGTGDDYWGQGTQVTVSSGGGGSGGGGSGGGGSSSALTQPSAVSVSLGQTARITCQGGNFGRYYVSWYQQKPGQAPVLVIYKDSERPSGIPERFSGSSSGDTATLTISGAQAEDEADYYCQSGSSSDNAVFGGGTHLTVL",
    "Bmax (OD values) / OD": 1.59
  },
  {
    "binder": "4G05 scFv-human Fc (Fc fusion, about 100 kDa on SDS-PAGE; also called 4G05 ScFv-hFc; not shown: CH2-CH3 constant domains of human IgG1 (vector pUPEX50)) scFv: QLQVVESGGGLVQTGGSLTLSCTTSGFTFSRYWMIWVRQAPGKGLEWVSSIYNDGGNTYYADSVKGRFTISRDNSENTLYLQMNSLKSEDTAVYYCAKLKAAYYGMDYWGKGTLVTVSSGGGGSGGGGSGGGGSSSALTQPSAVSVSLGQTARITCQGANLGRYYGIWYQQKPGQAPVQVIYGDSNRPSGIPERFSGSSSGGTATLTISGAQAEDEADYYCQSYESSTSPVFGGGTHLTVL",
    "Bmax (OD values) / OD": 3.03
  },
  {
    "binder": "2E11 scFv-human Fc (Fc fusion, about 100 kDa on SDS-PAGE; also called 2E11 ScFv-hFc; not shown: CH2-CH3 constant domains of human IgG1 (vector pUPEX50)) scFv: EVQLVESGGGLVQPGGSLRLSCAASGFTFSSYAMSWVRQAPGKGLEWVSPINSGSDSASYVDSVKGRFTISRDNAKNTLYLQMNSLKPEDTAVYYCAKARTSVVAGGMDYWGKGTLVTVSSGGGGSGGGGSGGGGSQSALTQPSAVSVSLGQTARITCQGGKFGSYYVSWYQQKPGQAPVMVIYKDNERPSGIPERFSGSSSGSTSTLTISGAQAEDEGTYYCQSGSSSDNIVFGGGTELTVF",
    "Bmax (OD values) / OD": 1.43
  },
  {
    "binder": "6F05 scFv-human Fc (Fc fusion, about 100 kDa on SDS-PAGE; also called 6F5; 6F05 ScFv-hFc; not shown: CH2-CH3 constant domains of human IgG1 (vector pUPEX50)) scFv: QLQLVESGGGLVQPGGSLRLSCAASGFTFSSYAMSWVRQAPGKGLEWVSAINSGGGSTSYADSVKGRFTISRDNAKNTLYLQMNSLKPEDTAVYYCATPGDRLWYYRYDYWGQGTQVTVSSGGGGSGGGGSGGGGSQAGLTQPPSVSGTLGKAVTISCAGTSSDIGYGNYVSWYQQLPGTAPKLLIYKVSRRASGVPDRFSGSKSGNTASLSISGLQSEDEADYYCASYRYRNNVVFGGGTHLTVL",
    "Bmax (OD values) / OD": 2.9
  },
  {
    "binder": "5E12 scFv-human Fc (Fc fusion, about 100 kDa on SDS-PAGE; also called 5E12 ScFv-hFc; not shown: CH2-CH3 constant domains of human IgG1 (vector pUPEX50)) scFv: QLQLVESGGGLVQPGGSLRLSCVASGFTFRNYPMTWVRQAPGKGPEWVSAINGGGDIPYYADSVKGRFTISRDNAKNTVYLQMDSLKPEDTAMYYCAKQKWGYDPRRTDFEFRGQGTQVTVSSGGGGSGGGGSGGGGSETVPTQSPSSVTASVGEKVTITCKSSQSVRIESNHKTYLNWYQQRPGRGPRLLIYDASSRESGIPDRFSGSGSTSDFTLTISSVQPEDAAVYYCQQAYAAPTFGQGTKLEIK",
    "Bmax (OD values) / OD": 1.84
  },
  {
    "binder": "6F11 scFv-human Fc (Fc fusion, about 100 kDa on SDS-PAGE; also called 6F11 ScFv-hFc; not shown: CH2-CH3 constant domains of human IgG1 (vector pUPEX50)) scFv: QVQRQESGPGLVKPSQTLSVTCTVSGGSITTGPYSWSWIRQPPGKGLEWIGYIGYSGSTYYSPSLKSRTSISRDTSNNQFSLQLSSVTPEDTAVYYCARSRSSPTTFGMDYWGKGTLVTVSSGGGGSGGGGSGGGGSSSALTQPSAVSVSLGQTARITCQGGDFGRYYVAWYTQKPGQAPVLVIYQDSERPSGIPERFSGSSSGDTATLTISGAQAEDEAEYYCQSGISSDNIVFGGGTHLTVL",
    "Bmax (OD values) / OD": 1.56
  },
  {
    "binder": "1A12 scFv-human Fc (Fc fusion, about 100 kDa on SDS-PAGE; also called 1A12 ScFv-hFc; not shown: CH2-CH3 constant domains of human IgG1 (vector pUPEX50)) scFv: QVQLVESGGGLVQPGGSLRVSCAASGFTFSSYYMSWVRQAPGKGLEWVSAINSGGGSTYYADSVKGRFTISRDNAKNTLYLQMNSLKSEDTAVYYCVQNGGIWSFGSWGQGTQVTVSSGGGGSGGGGSGGGGSSSALTQPSAISVSLGQTARITCQGGNFGYYYVSWYQQKPGQAPVQVIYGDSNRPSGIPERFSGSSSGGTATLTISGAQAEDEADYYCLSYESSDYPVFGGGTHLTVL",
    "Bmax (OD values) / OD": 0.409
  }
]

Moving on to the next binder.
Query: For the binder 2C07 scFv-human Fc (Fc fusion, about 100 kDa on SDS-PAGE; also called 2C07 ScFv-hFc; not shown: CH2-CH3 constant domains of human IgG1 (vector pUPEX50)) scFv: ELQLVESGGGLVQPGGSLRLSCAASGFTFSSYAMSWVRQAPGKGLEWVSNINSGGGSTGYADSVKGRFTISRDNAKNTLYLQMNSLKPEDMAVYYCAKYLRTYYPNAAFGMDYWGKGTLVTVSSGGGGSGGGGSGGGGSQAVLTQPSAVSVSLGQTARITCQGGNFGRYYASWYQQKPGQAPVLVIYRDSERPSGIPERFSGSSSGDTATLTISGAQAEDEADYYCQSGRSSDNAVFGGGTHLTGL , what Bmax (OD values) is on record?
Response: 2.89
